test: NCI Yeast Anticancer Drug Screen. Data for the sgs1 mgt1 strain (AID 161);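 also: 0% = growth of cultures given vehicle only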; conditions: S. cerevisiae sgs1 mgt1 strain, at 50.0 µM, stronger effect = higher value
About 79,000 compounds went through this panel and 15% of them were active in at least one assay; those are over-represented in the sample as a whole.
Known growth inhibition of a selection of compounds
Kindly provide the numeric value in % only, without the unit symbol.

1. CN(C)CCOC(=O)C(O)C1CCCCC1 (stereo unspecified)    5.5

Q: Would you mind telling me what growth inhibition value was observed for ClC1=C(Cl)C2(Cl)C=CC1(Cl)C2 ?
A: 4

Q: Thanks! And C/C(CC(=O)Nc1cccc(Cl)c1C)=N\NC(=O)c1ccncc1 ?
A: -6.2

Q: Now the compound O=C(Nc1ccc2c(c1)Cc1cccc(F)c1-2)C(F)(F)F
A: 2.9

Q: What do you get for Cc1ccc(SCCSc2ccc(C)cc2)cc1 ?
A: 3

Q: # iterate: CC1(C)C2CC(=O)C1(C)C(OCc1ccccc1)C2 (stereo unspecified)
A: 6.1

Q: Same question for O=C(O)c1cc(C(=O)O)cc(S(=O)(=O)NCCO)c1 please.
A: 2.1

###

Below, each entry is listed alongside its reported growth inhibition.
assay: NCI Yeast Anticancer Drug Screen. Data for the mec2-1 strain (AID 157); conditions: S. cerevisiae mec2-1 strain, at 50.0 µM, stronger effect = higher value
This is part of a sample that, as a whole, favours compounds with a hit. Of some 79,000 tested, about 15% had one in any assay.
Give just the number in %; leave the unit off.

1) Cc1cc(C)c(N(C)C(=O)CCC(=O)O)c(Br)c1    -3.05
2) Cc1cc(Sc2ccccc2)nc2ccccc12    -12.2

Q: Which value of growth inhibition has been reported for CC(=O)Nc1c(Cl)cc2c(c1Cl)Cc1cc(N(C)C)ccc1-2 in the records?
A: -0.35

Q: What about O=C(O)CCCc1ccc2c(c1)CC1(C2)Cc2cc3c(cc2C1)CCCC3 ?
A: -32.4

Q: What do you have for CCCCCCC(C)NCC(=O)Nc1ccccc1C (centres undefined) ?
A: 14.2

Q: Now this one: Nc1ccn(C2OC(COC(=O)C34CC5CC(CC(C5)C3)C4)C(O)C2O)c(=O)n1 (centres undefined)
A: 0.4

Q: Likewise for CCNOCc1ccccc1 ?
A: -11.7

Q: Could you do the same for O=C(NCCCCCCNC(=O)C1CCCNC1)C1CCCNC1 (centres undefined) , please?
A: -11.7

Q: Now this one: CC1(C)CCC23CCC4(C)C(CCC5C6(C)CCC(=O)C(C)(C)C6CCC54C)C2C1OC3 (centres undefined)
A: -4.15

Q: Could you do the same for CC1(C(=O)O)CCCC1C(CCC(=O)O)C(=O)O (centres undefined) , please?
A: 15.1

Q: Try the molecule O=C(O)C12CCC(CC1=O)C2 (centres undefined)
A: 4.4

Q: Would you kindly repeat that for CCCCCC(=O)OCCCCCO ?
A: 16.8

Q: Then O=C(O)/C=C/C(=O)Nc1ccc(Cl)cc1C(=O)c1ccccc1 ?
A: 9.1

Q: And for CCCNC(=O)N1C(=O)c2ccccc2S1(=O)=O ?
A: -7.2

Q: Input CCC(=O)Nc1cccc(OC(=O)NC2CCCCC2)c1
A: 13.1

Q: What do we get for C[C@@H]1CC[C@]2(C(=O)O)CC[C@]3(C)C(=CC[C@@H]4[C@@]5(C)CC[C@H](O)C(C)(C)[C@@H]5CC[C@]43C)[C@@H]2[C@]1(C)O ?
A: 38.5

Q: Follow-up entry: COc1cc2ccnc(C#N)c2cc1OCc1ccccc1
A: -12.3
